Target: GST-PTP1B Mutated enzyme (Ser215) (Homo sapiens, UniProt P18031, C215S)
Construct: E. coli stated for the wild-type fusion)
Sequence (P18031 1-320 C215S): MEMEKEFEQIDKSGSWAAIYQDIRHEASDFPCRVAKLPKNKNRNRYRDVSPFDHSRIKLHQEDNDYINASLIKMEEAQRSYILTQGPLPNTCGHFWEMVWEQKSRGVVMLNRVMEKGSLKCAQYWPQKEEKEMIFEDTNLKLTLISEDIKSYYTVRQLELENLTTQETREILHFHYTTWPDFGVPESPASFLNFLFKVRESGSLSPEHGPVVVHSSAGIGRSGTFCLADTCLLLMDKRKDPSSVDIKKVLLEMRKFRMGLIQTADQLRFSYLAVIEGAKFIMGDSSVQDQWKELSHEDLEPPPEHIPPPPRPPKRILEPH
Experiment: GST-PTP1B SPA binding assay, mutated (Ser215) enzyme; competition with tritiated BzN-EJJ-CONH2
Details: mutated (Ser215) GST-PTP1B
valueKind: IC50

Give the measured IC50 of Cc1cc(Cl)c2c(c1O)C(=O)C=CC2=O [Quinone, reference compound] .
> 100 µM
